# TARGET SYSTEM: HLA-A*0201 molecules on T2 cells (CEMX721.174.T2) (human)
# ASSAY NOTES: cell-based or functional assay
TEST READOUT: Relative competitor activity to SEQ ID NO:2

In the examples that follow, each entry is paired with its recorded Relative competitor activity to SEQ ID NO:2.
>>> df
                                     binder            recorded_measurement
0  ALLMWITQA [peptide ALLMWITQA (SEQ ID NO:20)]     208 relative to SEQ ID NO:2
1  SLLAWITQA [peptide SLLAWITQA (SEQ ID NO:23)]  > 2700 relative to SEQ ID NO:2
2  SALMWITQA [peptide SALMWITQA (SEQ ID NO:21)]      27 relative to SEQ ID NO:2

We now examine a further binder.
Reported Relative competitor activity to SEQ ID NO:2, binder SLAMWITQA [peptide SLAMWITQA (SEQ ID NO:22)] : ____
270 relative to SEQ ID NO:2
